Header: IC50 / UniProt:P08069 / multiple publications

Look over these answered cases.
Report the value of IC50 obtained on UniProt:P08069 for "CC(=O)c1ccc(N2CCN(C(=O)CN3CC[C@@H](C(=O)Nc4ccc(O)c(Cl)c4)C3)CC2)cc1" .
> 30 µM

State measured IC50 of the compound "CNc1nccc(N2CCC[C@H](C(=O)NCc3ccc(C)cc3)C2)n1" with UniProt:P08069.
> 25 µM

Quote UniProt:P08069 IC50 for entry "C=CC(=O)N1CCC[C@H]1C(=O)Nc1cc2c(Nc3cccc(Cl)c3F)ncnc2cc1OCCOC" .
> 10 µM

Please report the measured IC50 for "COC(=O)c1ccc(CNC(=O)[C@H]2CCCN(c3ccnc(Nc4cc(OC)c(OC)c(OC)c4)n3)C2)cc1" tested on UniProt:P08069.
> 25 µM

Print UniProt:P08069 IC50 for "O=C(Nc1ccc(Oc2ncnc3scc(-c4ccccc4)c23)c(F)c1)c1cccn(-c2ccc(F)cc2)c1=O" .
> 10 µM

// fetch IC50 for "COc1cc(Nc2ncnc3nc[nH]c23)ccc1-c1nc2ccccc2s1" ; system: UniProt:P08069
> 10 µM

Continuing:
Report IC50 from UniProt:P08069 testing of "Cc1c[nH]c(/C=C2\C(=O)Nc3ccccc32)c1CCC(=O)O"
> 100 µM
